Taken from ChEMBL document CHEMBL3352033.

System: Saccharomyces cerevisiae
ASSAY_INFO: Toxicity against Saccharomyces cerevisiae AD1-8u(-)
Type: organism-based
The following molecules are listed with their measured IC50 values.
MEASURED_PROPERTY: IC50 (nM)

MOLECULE: C=C1CC(OC(C)=O)C(=O)C(C)(C)/C=C/[C@H](C)[C@@H](OC(C)=O)[C@@]2(OC(C)=O)C[C@@H](C)[C@H](OC(=O)c3ccccc3)[C@@H]2[C@H]1OC(C)=O (stereo partly drawn)
RESULT_NUMBER: 2300
//
MOLECULE: CC(=O)O[C@@H]1[C@@H](OC(C)=O)C(C)(C)/C=C/[C@H](C)C(=O)[C@@]2(OC(C)=O)C[C@@H](C)[C@H](OC(=O)c3ccccc3)/C2=C/[C@](C)(O)[C@@H]1OC(C)=O
RESULT_NUMBER: 2300
//
MOLECULE: CC(=O)O[C@@H]1[C@@H](O)[C@@H](OC(C)=O)/C(C)=C/[C@H]2[C@@H](OC(=O)c3ccccc3)[C@H](C)C[C@]2(OC(C)=O)[C@H](OC(C)=O)[C@@H](C)/C=C/C1(C)C
RESULT_NUMBER: 2300
